Recorded values, source patent US20180134769A1.

Recorded measurements of pKd, one per entry
# SYSTEM: T1, Clostridium difficile toxin A (TcdA) (Clostridium difficile strain 10463, UniProt P16154 1-2710)
# T1 construct: range 1-2710
# T1 sequence (P16154 whole entry): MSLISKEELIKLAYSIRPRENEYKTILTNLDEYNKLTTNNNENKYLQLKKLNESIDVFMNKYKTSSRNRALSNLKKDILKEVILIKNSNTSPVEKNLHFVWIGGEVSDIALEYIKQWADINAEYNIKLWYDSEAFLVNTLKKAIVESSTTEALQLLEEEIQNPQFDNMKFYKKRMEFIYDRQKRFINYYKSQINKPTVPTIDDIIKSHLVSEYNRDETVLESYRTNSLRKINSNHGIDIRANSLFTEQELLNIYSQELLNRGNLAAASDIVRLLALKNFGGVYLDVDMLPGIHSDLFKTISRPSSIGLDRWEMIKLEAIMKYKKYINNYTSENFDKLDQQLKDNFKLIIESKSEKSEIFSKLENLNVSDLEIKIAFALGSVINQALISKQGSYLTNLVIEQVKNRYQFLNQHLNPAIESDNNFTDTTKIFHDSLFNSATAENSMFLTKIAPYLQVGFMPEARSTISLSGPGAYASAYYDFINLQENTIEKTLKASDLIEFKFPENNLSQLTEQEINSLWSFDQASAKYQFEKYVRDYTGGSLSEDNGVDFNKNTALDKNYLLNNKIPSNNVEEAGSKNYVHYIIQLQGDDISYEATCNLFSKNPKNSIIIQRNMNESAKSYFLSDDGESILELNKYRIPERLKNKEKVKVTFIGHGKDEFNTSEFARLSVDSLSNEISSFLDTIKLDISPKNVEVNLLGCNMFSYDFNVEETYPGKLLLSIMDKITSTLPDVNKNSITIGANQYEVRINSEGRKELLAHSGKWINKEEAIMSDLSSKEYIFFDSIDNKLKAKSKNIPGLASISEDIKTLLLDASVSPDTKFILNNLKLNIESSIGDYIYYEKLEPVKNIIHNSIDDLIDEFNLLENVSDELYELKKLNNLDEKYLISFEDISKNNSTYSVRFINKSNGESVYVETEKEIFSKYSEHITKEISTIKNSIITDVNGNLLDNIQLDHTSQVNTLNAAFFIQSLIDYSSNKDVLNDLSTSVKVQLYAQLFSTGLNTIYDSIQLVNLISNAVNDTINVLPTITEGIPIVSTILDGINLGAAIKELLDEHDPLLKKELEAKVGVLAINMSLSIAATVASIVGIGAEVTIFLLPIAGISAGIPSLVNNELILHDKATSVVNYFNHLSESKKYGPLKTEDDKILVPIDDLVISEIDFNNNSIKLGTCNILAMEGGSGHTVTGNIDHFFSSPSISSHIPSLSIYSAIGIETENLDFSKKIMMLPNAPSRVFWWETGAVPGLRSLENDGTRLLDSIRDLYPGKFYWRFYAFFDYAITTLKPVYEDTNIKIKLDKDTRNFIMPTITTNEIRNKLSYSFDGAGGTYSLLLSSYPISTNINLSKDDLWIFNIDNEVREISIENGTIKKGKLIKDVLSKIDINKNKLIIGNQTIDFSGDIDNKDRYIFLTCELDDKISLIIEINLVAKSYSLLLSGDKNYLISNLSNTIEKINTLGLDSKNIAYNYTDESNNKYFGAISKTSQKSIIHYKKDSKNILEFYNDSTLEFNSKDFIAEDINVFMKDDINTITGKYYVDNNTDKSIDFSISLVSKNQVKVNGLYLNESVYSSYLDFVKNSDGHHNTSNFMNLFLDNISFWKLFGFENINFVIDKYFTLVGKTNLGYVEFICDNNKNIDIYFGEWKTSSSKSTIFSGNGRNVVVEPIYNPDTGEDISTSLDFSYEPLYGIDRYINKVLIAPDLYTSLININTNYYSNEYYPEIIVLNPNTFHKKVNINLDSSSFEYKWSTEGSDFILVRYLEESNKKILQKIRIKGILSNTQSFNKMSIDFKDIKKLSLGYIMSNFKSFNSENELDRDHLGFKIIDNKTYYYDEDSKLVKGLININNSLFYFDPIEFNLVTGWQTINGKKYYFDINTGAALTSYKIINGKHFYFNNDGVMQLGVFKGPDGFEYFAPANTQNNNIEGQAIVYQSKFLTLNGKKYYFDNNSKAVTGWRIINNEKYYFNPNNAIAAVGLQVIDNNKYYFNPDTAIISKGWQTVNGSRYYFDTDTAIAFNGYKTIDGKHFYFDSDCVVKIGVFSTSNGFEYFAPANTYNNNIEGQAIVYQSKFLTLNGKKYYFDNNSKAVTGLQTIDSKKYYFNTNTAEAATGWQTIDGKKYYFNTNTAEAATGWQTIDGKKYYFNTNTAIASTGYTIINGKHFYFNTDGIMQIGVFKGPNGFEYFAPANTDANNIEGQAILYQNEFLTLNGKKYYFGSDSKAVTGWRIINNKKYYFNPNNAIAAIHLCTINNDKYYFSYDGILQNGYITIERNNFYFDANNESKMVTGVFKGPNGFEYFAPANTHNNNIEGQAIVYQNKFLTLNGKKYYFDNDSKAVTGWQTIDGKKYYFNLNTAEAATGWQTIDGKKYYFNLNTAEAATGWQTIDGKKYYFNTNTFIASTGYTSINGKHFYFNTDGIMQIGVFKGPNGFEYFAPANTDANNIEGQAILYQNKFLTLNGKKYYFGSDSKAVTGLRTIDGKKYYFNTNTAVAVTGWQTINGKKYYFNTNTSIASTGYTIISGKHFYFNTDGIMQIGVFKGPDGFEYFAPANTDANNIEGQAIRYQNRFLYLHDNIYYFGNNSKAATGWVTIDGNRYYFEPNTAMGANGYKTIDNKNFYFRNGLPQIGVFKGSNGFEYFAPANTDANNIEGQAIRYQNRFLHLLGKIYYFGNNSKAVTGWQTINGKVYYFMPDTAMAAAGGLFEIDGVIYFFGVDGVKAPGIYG
# PROCEDURE SUMMARY: SPR (BIACORE 3000); 10,287 RUs of TcdA immobilized, VHH injected
Convention used: pKd is expressed as -log10 of the molar concentration.

See these solved cases before continuing.
BINDER	READOUT	RECORDED NUMBER
A20.1m (VHH, also called mutant A20.1; disulfide mutant of A20.1) VHH: QVQLVESGGGLAQAGGSLRLSCAASGRTFSMDPMAWFRQPPGKEREFVCAGSSTGRTTYYADSVKGRFTCSRDNAKNTVYLQMNSLKPEDTAVYYCAAAPYGANWYRDEYAYWGQGTQVTVSS	pKd	8.04
A4.2m (VHH, also called mutant A4.2; disulfide mutant of A4.2) VHH: QVKLEESGGGLVQAGGSLRLSCAASGRTFNTLSMGWFRQAPGKEREFVCAVSRSGGSTYYADSVKGRFTCSRDNAKNTVYLQMNSLKPEDTAVYYCAAAATKSNTTAYRLSFDYWGQGTQVTVSS	pKd	7.70
A26.8m (VHH, also called mutant A26.8; disulfide mutant of A26.8) VHH: QVKLEESGGGLVQAGGSLRLSCAASERTFSRYPVAWFRQAPGAEREFVCVISSTGTSTYYADSVKGRFTCSRDNAKVTVYLQMNNLKREDTAVYFCAVNSQRTRLQDPNEYDYWGQGTQVTVSS	pKd	7.55

Next:
Record request: pKd value, item A5.1m (VHH, also called mutant A5.1; disulfide mutant of A5.1) VHH: QVKLEESGGGLVQAGGSLRLSCAASGRTFSMYRMGWFRQAPGKEREFVCVITRNGSSTYYADSVKGRFTCSRDNAKNTVYLQMNSLKPEDTALYYCAATSGSSYLDAAHVYDYWGQGTQVTVSS
7.77
